Give IC50 for every item shown.
Tested on: NIH3T3/EGFR_E746-A750_deletion
assay.info: Cell proliferation assay (CellTiter-Glo), NIH3T3/EGFR_E746-A750_deletion
Type: cell-based
details: Mus musculus, NIH3T3, 120 h, 3T3 cell line, three to five days of compound treatment, read-out: 3T3 del IC50

Find IC50 for C=CC(=O)N(C)[C@H]1C[C@H](Oc2nc(Nc3cnn(CC(O)CN(C)C)c3)nc3[nH]cc(Cl)c23)C1 (some centres unmarked) on NIH3T3/EGFR_E746-A750_deletion and write it down.
100 to 1000 nM

Find IC50 for `C=CC(=O)N1C[C@H](COc2nc(Nc3cn(C)nc3CC)nc3[nH]cc(F)c23)[C@@H](OC)C1` on NIH3T3/EGFR_E746-A750_deletion and write it down.
100 to 1000 nM

Find IC50 for `C=CC(=O)N1C[C@H](COc2nc(Nc3cn(C)nc3OC)nc3[nH]cc(Cl)c23)[C@@H](OC)C1` on NIH3T3/EGFR_E746-A750_deletion and write it down.
100 to 1000 nM

Find IC50 for `C=CC(=O)N1C[C@@H]2CN(c3nc(Nc4cnn(C)c4)nc4[nH]cc(Cl)c34)C[C@@H]2C1` on NIH3T3/EGFR_E746-A750_deletion and write it down.
10 to 100 nM

Find IC50 for C=CC(=O)Nc1cccc(Oc2nc(Nc3cnn(C4CCN(C)C4)c3)nc3[nH]ccc23)c1 (centres unmarked) on NIH3T3/EGFR_E746-A750_deletion and write it down.
< 10 nM

###

Give pIC50 for every item shown.
measured.target: EGFR wildtype, endogenous (Homo sapiens)
Construct: A549 (EGFR wildtype, endogenous)
Sequence (P00533 25-1210): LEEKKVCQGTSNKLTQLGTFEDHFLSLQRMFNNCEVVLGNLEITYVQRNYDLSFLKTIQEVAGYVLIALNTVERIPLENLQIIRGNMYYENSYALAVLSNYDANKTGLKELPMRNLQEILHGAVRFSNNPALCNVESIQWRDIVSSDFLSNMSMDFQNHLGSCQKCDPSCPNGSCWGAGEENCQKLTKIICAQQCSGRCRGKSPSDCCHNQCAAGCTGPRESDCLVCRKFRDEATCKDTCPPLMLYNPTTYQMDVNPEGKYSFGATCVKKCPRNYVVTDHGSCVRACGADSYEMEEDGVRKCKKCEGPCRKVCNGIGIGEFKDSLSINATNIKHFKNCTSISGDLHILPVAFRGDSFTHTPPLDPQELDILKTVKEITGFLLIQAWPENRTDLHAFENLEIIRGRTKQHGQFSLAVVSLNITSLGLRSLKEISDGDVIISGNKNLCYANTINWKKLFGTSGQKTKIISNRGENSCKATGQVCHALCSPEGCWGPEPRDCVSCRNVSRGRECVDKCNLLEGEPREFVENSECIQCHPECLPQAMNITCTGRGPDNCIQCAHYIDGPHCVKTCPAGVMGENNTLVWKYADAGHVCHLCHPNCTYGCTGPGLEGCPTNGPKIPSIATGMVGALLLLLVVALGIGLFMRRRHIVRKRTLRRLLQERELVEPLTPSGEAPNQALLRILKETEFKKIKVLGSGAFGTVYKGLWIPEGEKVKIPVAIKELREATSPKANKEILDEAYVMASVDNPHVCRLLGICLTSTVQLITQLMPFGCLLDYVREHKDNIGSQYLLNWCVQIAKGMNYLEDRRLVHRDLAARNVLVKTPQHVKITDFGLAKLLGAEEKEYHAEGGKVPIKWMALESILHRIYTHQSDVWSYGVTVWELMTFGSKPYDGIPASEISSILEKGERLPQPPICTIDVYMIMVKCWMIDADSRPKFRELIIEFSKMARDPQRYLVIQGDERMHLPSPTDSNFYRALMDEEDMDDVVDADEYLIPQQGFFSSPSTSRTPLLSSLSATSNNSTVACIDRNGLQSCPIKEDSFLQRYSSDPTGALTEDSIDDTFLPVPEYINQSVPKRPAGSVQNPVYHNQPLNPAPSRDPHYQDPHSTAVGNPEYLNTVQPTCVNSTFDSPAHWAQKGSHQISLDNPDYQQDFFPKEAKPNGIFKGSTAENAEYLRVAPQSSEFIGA
assay.info: pEGFR Y1068 ELISA assay, A549 cells;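 also: sandwich ELISA of phospho-EGFR Tyr1068 in cell lysates, cells exposed to compound for 2 h before EGF stimulation, 11-point threefold dilution series run in duplicate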
details: full serum media, stimulated 10 min with EGF (40 ng/mL), read-out: pEGFRY1068 ELISAA549 IC50
pIC50: −log10 of the molar value.

Determine its reported pIC50: C=CC(=O)N1C[C@@H]2[C@H](C1)[C@H]2Oc1nc(Nc2cnn(C)c2)nc2[nH]cc(Cl)c12 [Example 66]
< 5.00

Determine its reported pIC50: C=CC(=O)N1CCOC2(CCN(c3nc(Nc4cnn(C)c4)nc4[nH]cc(Cl)c34)C2)C1 (single isomer, unassigned) [Example 112]
< 5.00

Determine its reported pIC50: C=CC(=O)Nc1cccc(Oc2nc(Nc3cnn(C)c3)nc3[nH]cc(-c4cnn(C)c4)c23)c1 [Example 60]
5.73

Determine its reported pIC50: C=CC(=O)N1CC(COc2nc(Nc3cnn(C)c3)nc3[nH]ccc23)C1 [Example 16]
< 5.00

Determine its reported pIC50: C=CC(=O)N[C@@H]1CCCN(c2nc(Nc3cnn(C)c3)nc3[nH]cc(Cl)c23)C1 [Example 11]
< 5.00

Determine its reported pIC50: C=CC(=O)Nc1cccc(Oc2nc(Nc3cnn(C)c3)nc3[nH]cc(-c4cccnc4)c23)c1 [Example 8]
5.86

Determine its reported pIC50: C=CC(=O)N1C[C@H](Nc2nc(Nc3cnn(C)c3)nc3[nH]cc(Cl)c23)[C@@H](C(F)(F)F)C1 [Example 87]
6.02

Determine its reported pIC50: C=CC(=O)N1C[C@@H]2CN(c3nc(Nc4cn(C)nc4OC)nc4[nH]cc(Cl)c34)C[C@@H]2C1 [Example 99]
5.46

Determine its reported pIC50: C=CC(=O)N1C[C@H](COc2nc(Nc3cn(C)nc3OC)nc3[nH]cc(Cl)c23)[C@@H](OC)C1 [Example 70]
< 5.00

Determine its reported pIC50: C=CC(=O)N1CC[C@@H](Oc2nc(Nc3cnn(C)c3)nc3[nH]cc(C#N)c23)C1 [Example 20]
< 5.00

Determine its reported pIC50: C=CC(=O)Nc1cccc(Oc2nc(Nc3cc(C)nn3C)nc3[nH]ccc23)c1 [Example 26]
5.17

Determine its reported pIC50: C=CC(=O)Nc1cccc(Oc2nc(Nc3cnn(CC(C)(C)O)c3)nc3[nH]ccc23)c1 [Example 25]
< 5.00

Determine its reported pIC50: C=CC(=O)N1CC[C@@H](Nc2nc(Nc3cnn(C)c3)nc3[nH]cc(C#N)c23)C1 [Example 78]
< 5.00

Determine its reported pIC50: C=CC(=O)N[C@H]1C[C@H](Oc2nc(Nc3cnn(C)c3)nc3[nH]cc(-c4ccccn4)c23)C1 [Example 12]
< 5.00

Determine its reported pIC50: C=CC(=O)N1CC[C@@H](Oc2nc(Nc3cnn(C)c3)nc3[nH]cc(Cl)c23)C1 [Example 65]
< 5.00

Determine its reported pIC50: C=CC(=O)Nc1cccc(Oc2nc(Nc3cnn(CCN(C)C)c3)nc3[nH]cnc23)c1 [Example 53]
< 5.00

Determine its reported pIC50: C=CC(=O)N1C[C@H](COc2nc(Nc3cnn([C@H]4CCOC4)c3)nc3[nH]cc(Cl)c23)[C@@H](OC)C1 [Example 102]
5.30

Determine its reported pIC50: C=CC(=O)N1C[C@H](COc2nc(Nc3cn(CC#N)nc3C)nc3[nH]cc(Cl)c23)[C@@H](OC)C1 [Example 115]
< 5.00

Determine its reported pIC50: C=CC(=O)N(C)[C@H]1C[C@H](Oc2nc(Nc3cn(C)nc3C)nc3[nH]cc(Cl)c23)C1 [Example 62]
< 5.00

Determine its reported pIC50: C=CC(=O)Nc1cccc(Oc2nc(Nc3cc(C4CC4)nn3C)nc3[nH]ccc23)c1 [Example 46]
< 5.00

Determine its reported pIC50: C=CC(=O)N1C[C@@H]2CN(c3nc(Nc4cnn(C)c4)nc4[nH]cc(Cl)c34)C[C@@H]2C1 [Example 71]
< 5.26

Determine its reported pIC50: C=CC(=O)N[C@H]1C[C@@H](Oc2nc(Nc3cnn(C)c3)nc3[nH]cc(-c4cccnc4)c23)C1 [Example 109]
5.26

Determine its reported pIC50: C=CC(=O)Nc1cccc(Oc2nc(Nc3cnn(C4CCN(C)CC4)c3)nc3[nH]ccc23)c1 [Example 33]
5.66

Determine its reported pIC50: C=CC(=O)Nc1cccc(Oc2nc(Nc3cc[nH]n3)nc3[nH]ccc23)c1 [Example 27]
< 5.00

Determine its reported pIC50: C=CC(=O)N1CCOC2(CCN(c3nc(Nc4cnn(C)c4)nc4[nH]cc(Cl)c34)C2)C1 (stereo not shown) [Example 76]
< 5.00

Determine its reported pIC50: C=CC(=O)N[C@H]1C[C@H](Oc2nc(Nc3cnn(C)c3)nc3[nH]cc(Cl)c23)C1 [Example 63]
< 5.00

Determine its reported pIC50: C=CC(=O)N1C[C@H](COc2nc(Nc3cnn(CCO)c3)nc3[nH]cc(Cl)c23)[C@@H](OC)C1 [Example 101]
< 5.00

Determine its reported pIC50: C=CC(=O)Nc1cccc(Oc2nc(Nc3cnn([C@H]4CCN(C)C4)c3)nc3[nH]ccc23)c1F [Example 106]
< 5.00

Determine its reported pIC50: C=CC(=O)Nc1cccc(Oc2nc(Nc3ccn(CCN(C)C)n3)nc3[nH]ccc23)c1 [Example 51]
< 5.00

Determine its reported pIC50: C=CC(=O)Nc1cccc(Oc2nc(Nc3ccn(C)n3)nc3[nH]cc(F)c23)c1 [Example 1]
< 5.00

Determine its reported pIC50: C=CC(=O)N(C)C1CC(Oc2nc(Nc3cnn(C)c3)nc3[nH]cc(C#N)c23)C1 (stereo not shown) [Example 61]
< 5.00

###

measured.target: EGFR L858R+T790M (Homo sapiens, UniProt P00533, L858R/T790M)
Sequence (P00533 25-1210 T790M/L858R): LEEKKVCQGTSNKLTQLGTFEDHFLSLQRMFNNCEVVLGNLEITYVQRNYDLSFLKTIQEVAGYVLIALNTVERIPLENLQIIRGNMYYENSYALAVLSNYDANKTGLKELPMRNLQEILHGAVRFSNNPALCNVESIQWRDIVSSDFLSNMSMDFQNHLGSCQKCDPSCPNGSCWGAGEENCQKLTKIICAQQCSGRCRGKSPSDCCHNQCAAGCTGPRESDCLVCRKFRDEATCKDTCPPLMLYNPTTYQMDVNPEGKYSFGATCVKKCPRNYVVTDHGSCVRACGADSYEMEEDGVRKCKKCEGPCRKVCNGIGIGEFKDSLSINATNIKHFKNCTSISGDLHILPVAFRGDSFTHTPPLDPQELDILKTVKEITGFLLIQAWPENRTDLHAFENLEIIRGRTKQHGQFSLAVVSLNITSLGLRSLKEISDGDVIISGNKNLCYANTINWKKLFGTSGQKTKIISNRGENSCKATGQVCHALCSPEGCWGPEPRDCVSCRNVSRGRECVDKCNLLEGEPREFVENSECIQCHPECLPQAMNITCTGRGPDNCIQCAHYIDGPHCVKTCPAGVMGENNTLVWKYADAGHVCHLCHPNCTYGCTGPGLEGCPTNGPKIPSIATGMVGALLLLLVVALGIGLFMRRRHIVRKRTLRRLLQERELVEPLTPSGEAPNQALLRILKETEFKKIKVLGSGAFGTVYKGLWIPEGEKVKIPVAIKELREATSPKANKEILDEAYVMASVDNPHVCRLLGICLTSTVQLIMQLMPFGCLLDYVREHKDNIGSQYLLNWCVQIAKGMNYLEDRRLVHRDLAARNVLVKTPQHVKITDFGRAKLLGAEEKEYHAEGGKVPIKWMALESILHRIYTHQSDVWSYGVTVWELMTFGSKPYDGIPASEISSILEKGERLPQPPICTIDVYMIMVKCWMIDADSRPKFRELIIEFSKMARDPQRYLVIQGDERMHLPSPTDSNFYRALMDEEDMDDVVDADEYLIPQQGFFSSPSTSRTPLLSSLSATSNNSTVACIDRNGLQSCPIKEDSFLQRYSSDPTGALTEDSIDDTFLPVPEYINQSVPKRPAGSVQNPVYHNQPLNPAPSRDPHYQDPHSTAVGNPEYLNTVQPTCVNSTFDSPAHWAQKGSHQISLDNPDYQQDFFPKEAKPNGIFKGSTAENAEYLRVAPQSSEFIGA
assay.info: pEGFR Y1068 ELISA assay, NIH3T3/EGFR_L858R+T790M cells
details: 3T3 cell line, 2 hrs compound treatment; read-out: pEGFRY1068 ELISA3T3T790M—L858R IC50
Give IC50 for every item shown.
Answer in nM, number only, no unit symbol.

Determine its reported IC50: C=CC(=O)N1C[C@H](COc2nc(Nc3cnn([C@@H]4CCOC4)c3)nc3[nH]cc(Cl)c23)[C@@H](OC)C1 [Example 103]
15

Determine its reported IC50: C=CC(=O)N(C)[C@H]1C[C@H](Oc2nc(Nc3cn(C)nc3C)nc3[nH]cc(Cl)c23)C1 [Example 62]
10

Determine its reported IC50: C=CC(=O)N1C[C@H](COc2nc(Nc3cnn([C@H]4CCOC4)c3)nc3[nH]cc(Cl)c23)[C@@H](OC)C1 [Example 102]
21

Determine its reported IC50: C=CC(=O)N1CCO[C@@H](COc2nc(Nc3cnn(C)c3)nc3[nH]ccc23)C1 [Example 17]
104

Determine its reported IC50: C=CC(=O)N1CC[C@@H](Oc2nc(Nc3cnn(C)c3)nc3[nH]cc(C#N)c23)C1 [Example 20]
1820

Determine its reported IC50: C=CC(=O)N(C)C1CC(Oc2nc(Nc3cnn(C)c3)nc3[nH]cc(C#N)c23)C1 (stereo not shown) [Example 61]
189

Determine its reported IC50: C=CC(=O)Nc1cc(F)cc(Oc2nc(Nc3ccn(C)n3)nc3[nH]ccc23)c1 [Example 49]
7

Determine its reported IC50: C=CC(=O)N[C@H]1C[C@@](C)(Oc2nc(Nc3cnn(C)c3)nc3[nH]cc(Cl)c23)C1 [Example 69]
19

Determine its reported IC50: C=CC(=O)Nc1cccc(Oc2nc(Nc3cn(C)nc3C)nc3[nH]ccc23)c1 [Example 30]
9

Determine its reported IC50: C=CC(=O)Nc1cccc(Oc2nc(Nc3cc(OCCN(C)C)nn3C)nc3[nH]ccc23)c1F [Example 104]
25

Determine its reported IC50: C=CC(=O)N1CC[C@@H](Oc2nc(Nc3cnn(C)c3)nc3[nH]cc(Cl)c23)C1 [Example 65]
44

Determine its reported IC50: C=CC(=O)N1C[C@H](COc2nc(Nc3cn(C)nc3OC)nc3[nH]cc(Cl)c23)[C@@H](OC)C1 [Example 70]
12

Determine its reported IC50: C=CC(=O)N1CC(COc2nc(Nc3cnn(C)c3)nc3[nH]ccc23)C1 [Example 16]
308

Determine its reported IC50: C=CC(=O)Nc1cccc(Oc2nc(Nc3cnn(C)c3C)nc3[nH]ccc23)c1 [Example 24]
20

Determine its reported IC50: C=CC(=O)Nc1cccc(Oc2nc(Nc3cnn(C4CCN(C)C4)c3)nc3[nH]ccc23)c1 (stereo not shown) [Example 34]
14

Determine its reported IC50: C=CC(=O)Nc1cccc(Oc2nc(Nc3ccn(CCN(C)C)n3)nc3[nH]ccc23)c1 [Example 51]
35
